# experimental_target: NaV 1.7 (Homo sapiens, UniProt Q15858)
# Sequence (Q15858 whole entry): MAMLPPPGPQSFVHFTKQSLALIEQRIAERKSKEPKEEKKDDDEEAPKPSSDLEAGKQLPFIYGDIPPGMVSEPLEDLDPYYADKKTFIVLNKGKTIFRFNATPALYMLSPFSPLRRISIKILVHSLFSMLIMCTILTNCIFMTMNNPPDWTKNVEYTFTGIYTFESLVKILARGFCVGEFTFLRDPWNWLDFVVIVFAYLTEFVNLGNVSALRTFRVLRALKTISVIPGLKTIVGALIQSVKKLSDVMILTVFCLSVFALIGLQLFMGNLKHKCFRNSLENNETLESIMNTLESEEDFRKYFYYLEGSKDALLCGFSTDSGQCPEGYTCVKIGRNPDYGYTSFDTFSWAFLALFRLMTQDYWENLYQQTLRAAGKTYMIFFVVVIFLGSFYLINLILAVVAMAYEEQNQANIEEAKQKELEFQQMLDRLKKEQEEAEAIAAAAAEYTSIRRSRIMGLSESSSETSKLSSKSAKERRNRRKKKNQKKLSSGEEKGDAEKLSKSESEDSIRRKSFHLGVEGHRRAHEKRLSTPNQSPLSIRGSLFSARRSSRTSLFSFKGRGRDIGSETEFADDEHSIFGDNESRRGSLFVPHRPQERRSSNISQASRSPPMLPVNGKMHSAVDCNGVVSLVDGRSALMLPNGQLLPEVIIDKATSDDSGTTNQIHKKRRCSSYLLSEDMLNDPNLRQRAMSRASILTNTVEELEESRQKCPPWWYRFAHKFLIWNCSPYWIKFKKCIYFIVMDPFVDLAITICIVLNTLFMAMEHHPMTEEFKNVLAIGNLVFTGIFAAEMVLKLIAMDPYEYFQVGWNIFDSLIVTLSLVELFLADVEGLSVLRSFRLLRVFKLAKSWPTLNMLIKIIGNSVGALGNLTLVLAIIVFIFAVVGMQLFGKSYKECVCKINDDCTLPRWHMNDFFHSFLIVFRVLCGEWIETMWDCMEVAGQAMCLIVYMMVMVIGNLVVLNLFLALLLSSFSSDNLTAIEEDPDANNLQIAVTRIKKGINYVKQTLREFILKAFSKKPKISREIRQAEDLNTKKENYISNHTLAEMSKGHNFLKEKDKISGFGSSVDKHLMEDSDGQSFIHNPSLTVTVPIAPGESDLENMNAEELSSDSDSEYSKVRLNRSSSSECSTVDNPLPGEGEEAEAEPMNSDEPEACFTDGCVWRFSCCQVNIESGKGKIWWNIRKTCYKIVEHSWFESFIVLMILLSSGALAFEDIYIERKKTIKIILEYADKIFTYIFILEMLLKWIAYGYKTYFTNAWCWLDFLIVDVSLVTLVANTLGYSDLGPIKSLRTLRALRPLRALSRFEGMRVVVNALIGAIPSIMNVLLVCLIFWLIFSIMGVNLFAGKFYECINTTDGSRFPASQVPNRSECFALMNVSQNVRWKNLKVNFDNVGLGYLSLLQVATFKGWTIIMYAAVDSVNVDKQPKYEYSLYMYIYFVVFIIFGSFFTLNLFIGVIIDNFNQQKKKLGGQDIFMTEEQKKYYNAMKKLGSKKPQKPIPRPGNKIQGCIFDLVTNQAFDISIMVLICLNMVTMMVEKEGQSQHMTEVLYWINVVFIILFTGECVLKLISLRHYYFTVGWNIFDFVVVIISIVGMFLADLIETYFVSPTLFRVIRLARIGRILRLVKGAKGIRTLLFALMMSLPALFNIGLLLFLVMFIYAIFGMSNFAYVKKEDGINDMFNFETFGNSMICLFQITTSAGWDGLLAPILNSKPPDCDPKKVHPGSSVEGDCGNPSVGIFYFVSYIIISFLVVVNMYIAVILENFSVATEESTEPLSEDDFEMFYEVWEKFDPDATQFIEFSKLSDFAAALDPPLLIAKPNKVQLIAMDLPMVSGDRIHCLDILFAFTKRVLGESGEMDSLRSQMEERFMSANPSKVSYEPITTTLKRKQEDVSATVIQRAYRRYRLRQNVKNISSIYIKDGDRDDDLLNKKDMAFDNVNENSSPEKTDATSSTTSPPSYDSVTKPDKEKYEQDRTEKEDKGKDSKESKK
# protocol_details: E-VIPR optical membrane potential assay with electrical stimulation
# test_conditions: active against one or more sodium channels; assay/subtype not specified in Table 4; read-out: IC50 Binned Activity Data
Hi there, I'd appreciate the recorded IC50 for every entry that follows.

[in] Missing value: IC50, NaV 1.7 (Homo sapiens, UniProt Q15858), entry COc1nc(C(=O)N2CCC3(c4ccccc4)CC3C2)ccc1OCC(C)(C)O (stereo not drawn) [Compound 60] . Fill in?
[out] ≤ 2000 nM

[in] Missing value: IC50, NaV 1.7 (Homo sapiens, UniProt Q15858), entry Cc1cc(C(=O)N2CC[C@@]3(c4ccc(F)cc4)OCOC3C2)ccc1OCC(C)(C)O (stereo partly drawn) [Compound 58] . Fill in?
[out] ≤ 2000 nM

[in] Missing value: IC50, NaV 1.7 (Homo sapiens, UniProt Q15858), entry COc1nc(C(=O)N2CC[C@]3(c4cc(F)ccc4F)OCOC3C2)ccc1OCCOC(F)(F)F (stereo partly drawn) [Compound 289] . Fill in?
[out] ≤ 2000 nM

[in] Missing value: IC50, NaV 1.7 (Homo sapiens, UniProt Q15858), entry CCOc1nc(C(=O)N2CC[C@]3(c4nccs4)OCOC3C2)ccc1OCCOC(F)(F)F (stereo partly drawn) [Compound 118] . Fill in?
[out] ≤ 2000 nM

[in] Missing value: IC50, NaV 1.7 (Homo sapiens, UniProt Q15858), entry COc1nc(C(=O)N2CC[C@]3(c4cccc(F)c4)OCOC3C2)ccc1OC(C)C(F)(F)C(F)F (stereo partly drawn) [Compound 234] . Fill in?
[out] ≤ 2000 nM

[in] Missing value: IC50, NaV 1.7 (Homo sapiens, UniProt Q15858), entry COc1nc(C(=O)N2CC[C@]3(c4cccc(C(F)(F)F)n4)OCOC3C2)ccc1OCC1CC(F)(F)C1 (stereo partly drawn) [Compound 267] . Fill in?
[out] ≤ 2000 nM

[in] Missing value: IC50, NaV 1.7 (Homo sapiens, UniProt Q15858), entry O=C(c1cccc2cccnc12)N1CCC2(c3ccccc3)OCC2C1 (stereo not drawn) [Compound 33] . Fill in?
[out] ≤ 2000 nM

[in] Missing value: IC50, NaV 1.7 (Homo sapiens, UniProt Q15858), entry CC(C)(F)COc1ccc(C(=O)N2CC[C@@]3(c4cccc(F)c4)OCOC3C2)cc1Cl (stereo partly drawn) [Compound 217] . Fill in?
[out] 2000 to 5000 nM

[in] Missing value: IC50, NaV 1.7 (Homo sapiens, UniProt Q15858), entry Cc1cc(C(=O)N2CC[C@@]3(c4nccs4)OCOC3C2)ccc1OCC(C)(C)O (stereo partly drawn) [Compound 30] . Fill in?
[out] ≤ 2000 nM

[in] Missing value: IC50, NaV 1.7 (Homo sapiens, UniProt Q15858), entry COc1nc(C(=O)N2CC[C@@]3(c4nccs4)OCOC3C2)ccc1OCCOC(F)(F)F (stereo partly drawn) [Compound 126] . Fill in?
[out] ≤ 2000 nM

[in] Missing value: IC50, NaV 1.7 (Homo sapiens, UniProt Q15858), entry O=C(c1ccc(OCC2CC2(F)F)c(C(F)(F)F)c1)N1CC[C@]2(c3ccccn3)OCOC2C1 (stereo partly drawn) [Compound 84] . Fill in?
[out] ≤ 2000 nM

[in] Missing value: IC50, NaV 1.7 (Homo sapiens, UniProt Q15858), entry O=C(c1cnc(OCCOC(F)(F)F)c(Cl)c1)N1CC[C@]2(c3ccccc3)OCOC2C1 (stereo partly drawn) [Compound 295] . Fill in?
[out] ≤ 2000 nM

[in] Missing value: IC50, NaV 1.7 (Homo sapiens, UniProt Q15858), entry CC(C)(C)OCCOc1ccc(C(=O)N2CC[C@]3(c4ncccc4OCCOC(C)(C)C)OCOC3C2)cc1Cl (stereo partly drawn) [Compound 87] . Fill in?
[out] ≤ 2000 nM

[in] Missing value: IC50, NaV 1.7 (Homo sapiens, UniProt Q15858), entry COc1cc(C(=O)N2CC[C@]3(c4cccc(F)c4F)OCOC3C2)ccc1OCCC(F)(F)F (stereo partly drawn) [Compound 282] . Fill in?
[out] ≤ 2000 nM

[in] Missing value: IC50, NaV 1.7 (Homo sapiens, UniProt Q15858), entry Cc1cc(C(=O)N2CC[C@]3(c4ncccn4)OCOC3C2)ccc1OC(C)C (stereo partly drawn) [Compound 5] . Fill in?
[out] > 5000 nM

[in] Missing value: IC50, NaV 1.7 (Homo sapiens, UniProt Q15858), entry O=C(c1ccc(OCCOC(F)(F)F)c(Cl)c1)N1CC[C@]2(c3ncccc3F)OCOC2C1 (stereo partly drawn) [Compound 145] . Fill in?
[out] ≤ 2000 nM

[in] Missing value: IC50, NaV 1.7 (Homo sapiens, UniProt Q15858), entry CCS(=O)(=O)c1ccc(C(=O)N2CCC3(c4ccccc4)CC3C2)cc1C (stereo not drawn) [Compound 15] . Fill in?
[out] 2000 to 5000 nM

[in] Missing value: IC50, NaV 1.7 (Homo sapiens, UniProt Q15858), entry COc1cc(C(=O)N2CCC3(c4ccccc4)CC3C2)ccc1OCC(C)(C)F (stereo not drawn) [Compound 158] . Fill in?
[out] ≤ 2000 nM

[in] Missing value: IC50, NaV 1.7 (Homo sapiens, UniProt Q15858), entry O=C(c1cccc2cccnc12)N1CCC2(c3ccccc3)CC2C1 (stereo not drawn) [Compound 143] . Fill in?
[out] ≤ 2000 nM

[in] Missing value: IC50, NaV 1.7 (Homo sapiens, UniProt Q15858), entry COc1cc(C(=O)N2CC[C@]3(c4cccc(Cl)c4)OCOC3C2)ccc1O[C@H](C)C(F)(F)F (stereo partly drawn) [Compound 243] . Fill in?
[out] ≤ 2000 nM

[in] Missing value: IC50, NaV 1.7 (Homo sapiens, UniProt Q15858), entry COc1nc(C(=O)N2CC[C@]3(c4cccc(F)c4F)OCOC3C2)ccc1OCC1CC(F)(F)C1 (stereo partly drawn) [Compound 281] . Fill in?
[out] ≤ 2000 nM

[in] Missing value: IC50, NaV 1.7 (Homo sapiens, UniProt Q15858), entry COc1nc(C(=O)N2CCC3(c4ccccc4)CC3C2)ccc1OCC(C)(C)F (stereo not drawn) [Compound 125] . Fill in?
[out] ≤ 2000 nM

[in] Missing value: IC50, NaV 1.7 (Homo sapiens, UniProt Q15858), entry COc1cc(C(=O)N2CCC3(c4ccccn4)C(C2)C3(F)F)ccc1OCC1CC(F)(F)C1 (stereo not drawn) [Compound 259] . Fill in?
[out] ≤ 2000 nM

[in] Missing value: IC50, NaV 1.7 (Homo sapiens, UniProt Q15858), entry COc1cc(C(=O)N2CC[C@]3(c4cc(C(F)(F)F)ccn4)OCOC3C2)ccc1OCC(F)(F)C(F)F (stereo partly drawn) [Compound 197] . Fill in?
[out] ≤ 2000 nM

[in] Missing value: IC50, NaV 1.7 (Homo sapiens, UniProt Q15858), entry Cc1cc(C(=O)N2CC[C@]3(c4ccccc4)OCOC3C2)ccc1OCC(C)(C)F (stereo partly drawn) [Compound 161] . Fill in?
[out] ≤ 2000 nM

[in] Missing value: IC50, NaV 1.7 (Homo sapiens, UniProt Q15858), entry CC(C)Oc1ccc(C(=O)N2CCC3(c4ccccc4)CC3C2)c(F)c1 (stereo not drawn) [Compound 19] . Fill in?
[out] 2000 to 5000 nM

[in] Missing value: IC50, NaV 1.7 (Homo sapiens, UniProt Q15858), entry COc1cc(C(=O)N2CC[C@]3(c4ccccn4)OCOC3C2)cc(Cl)c1OCCOC(F)(F)F (stereo partly drawn) [Compound 105] . Fill in?
[out] ≤ 2000 nM

[in] Missing value: IC50, NaV 1.7 (Homo sapiens, UniProt Q15858), entry COc1cc(C(=O)N2CC[C@]3(c4ccccn4)C(=O)OCC3C2)ccc1OCCOC(F)(F)F (stereo partly drawn) [Compound 277] . Fill in?
[out] ≤ 2000 nM

[in] Missing value: IC50, NaV 1.7 (Homo sapiens, UniProt Q15858), entry COc1cc(C(=O)N2CC[C@@]3(c4ccccc4)OCOC3C2)ccc1OCCOC(F)(F)F (stereo partly drawn) [Compound 148] . Fill in?
[out] ≤ 2000 nM

[in] Missing value: IC50, NaV 1.7 (Homo sapiens, UniProt Q15858), entry CC(C)(O)COc1ccc(C(=O)N2CC[C@@]3(c4nccs4)OCOC3C2)cc1Cl (stereo partly drawn) [Compound 17] . Fill in?
[out] 2000 to 5000 nM
